The values you see were collected from the supplement of paper PMC9732359.

# TEST SUMMARY: protein stability index of a GFP-peptide fusion (yeast GPS) (PSI 1-4); higher = more stable; sorted into four equal gates, so the index is relative within each strain
# MEASUREMENT CONTEXT: pdr5∆
Provide the recorded protein stability index for the entries that follow.

Q) Name the recorded protein stability index for NVIITGSTSLIEGMEQR [ARP7] .
A) 2.49

Q) What measured protein stability index goes with LNQIATLKIHLKKFLQE [IRR1] ?
A) 1.91

Q) Look up protein stability index for this sequence: ENHNGQSISNENDVKPI [SWI3]
A) 1.83

Q) Param item = NLSLYEATAASHERFFL [CSN12] ; retrieve measured protein stability index.
A) 2.73

Q) # get_value(readout='protein stability index', item= FKYIYELILAGAIDEAL [YDL116W/NUP84] )
A) 1.5

Q) Given EMKIGSIESKLEEHKNH [SMC1] , state its recorded protein stability index.
A) 3.22

Q) Suppose we examine the sequence VIAHLTVEALDFREKAL [RET1] ; what protein stability index value has been reported?
A) 2

----------
# TEST SUMMARY: protein stability index of a GFP-peptide fusion (yeast GPS) (PSI 1-4); higher = more stable; sorted into four equal gates, so the index is relative within each strain
# MEASUREMENT CONTEXT: pdr5∆
PROPERTY NAME: protein stability index
Respond numerically, and do not add a unit to the figure.

Q) Would you mind telling me what protein stability index value was observed for EVSTSTSMTGDANLLEE [SWI3] ?
A) 3.23

Q) Reported protein stability index for KPKAVARKSKEEREAAA [RPC53] : what is it?
A) 3.12

Q) I have this sequence here, KLNQKYDIVKFLTVSKL [GRR1] , and I need its recorded protein stability index.
A) 1.99

Q) So what does the record say about protein stability index for QFISSRQFEVKQLQLAM [POP1] ?
A) 2.45

Q) Dear colleague, I am looking for the recorded protein stability index of the following sequence: IESIRSCKDSQLKWAQN [YIL149C/MLP2]
A) 3.01

Q) protein stability index lookup needed for DARGVIGVIAGGGRVDK [RPL2A] , thanks.
A) 3.11

Q) Name the reported protein stability index value associated with the sequence CVEWRLPEIAKEIYTTL [YJR042W/NUP85]
A) 1.46

Q) Record request: protein stability index value, item QTYGETTAVDALQKGLK [RPC19]
A) 1.1

Q) Any idea what protein stability index was measured for QMDQQLQYTALTGSPNN [ARP7] ?
A) 3.36

Q) For the sequence INKIVEILTNQQRGITY [YGR119C/NUP57] , what protein stability index is on record?
A) 1.99

Q) Sample IIYHTTFSWLNAELLDY [YLR018C/POM34] — what was its protein stability index?
A) 2.19

Q) I'd like to know its protein stability index. The sequence in question is FAEENITHKLTKNDAGS [BRR2]
A) 3.22

Q) Fill blank: measured protein stability index of the sequence LEEEFVSNSEILKPFEK [RPT2] is ____.
A) 2.88

Q) Consider the sequence KHLEDNTLLVTGPFKVN [RPL6B] and give its measured protein stability index.
A) 2.53

Q) Entry under review: NAISLQLKYDTSVQEKE [YIL149C/MLP2] . Reported protein stability index?
A) 2.33

Q) Reported protein stability index for LFKTLFKKLTKDIFRYM [RPB2] : what is it?
A) 1.53

Q) protein stability index for IAATGLNQINGLNNDFL [GRR1] ?
A) 3.26

Q) Which protein stability index value is on record for LQYANNAVISHANAAAV [SIN4] ?
A) 1.99

Q) Fill in the blank: the reported protein stability index of KMLNEFVKKTSEEIDSL [SMC2] is ____.
A) 3.19

Q) Request the reported protein stability index associated with IMDELLSSIAERVRNFA [DIB1]
A) 2.27

Q) What does the data say about its protein stability index? Entry: PGFDEFQLIDMKDKEIN [CSI1]
A) 3

Q) Fill blank: measured protein stability index of the sequence LRKQYSAIDEEIEELID [SMC3] is ____.
A) 2.98

Q) Name the recorded protein stability index for SPTPIQRITIPNVCNMK [PRP28] .
A) 2.16

Q) What value of measured protein stability index is listed for PTHYKIPAWFLNRQNDI [RPS18A] ?
A) 2.19

Q) For QRILEVLGTPDQKIWPY [SSN3] , what is its reported protein stability index?
A) 1.45

Q) Could you tell me which protein stability index is on file for YFKLDLTSDLVYFGDEN [RRI2] ?
A) 2.47

Q) Fill in: protein stability index of SVFGFRTQFGGGKSVGF [RPS24A] is ___
A) 2.23

Q) Look up protein stability index for this sequence: STANPNIKLLNNRMGSY [POP1]
A) 3.16

Q) Record request: protein stability index value, item QFNAITGLNGSGKSNIL [SMC2]
A) 2.99

Q) Could you tell me which protein stability index is on file for WAVTLDTSRPDLEWQEL [DSN1] ?
A) 3.18
